- ASSAY_TARGET: sigma-1 receptor (Homo sapiens, UniProt Q99720)
- Construct: incubing Jurkat cell membranes ([…] protein per tube) with [^3H](+)-pentazocine; endogenous in cells; host or cells: Jurkat cell membranes
- Sequence (Q99720 whole entry): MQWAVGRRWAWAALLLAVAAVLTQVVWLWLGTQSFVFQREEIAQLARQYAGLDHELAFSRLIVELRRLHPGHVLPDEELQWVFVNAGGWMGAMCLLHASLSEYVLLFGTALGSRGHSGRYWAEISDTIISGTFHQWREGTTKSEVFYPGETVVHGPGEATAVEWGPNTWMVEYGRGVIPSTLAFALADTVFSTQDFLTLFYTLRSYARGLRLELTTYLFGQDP
- ASSAY_NAME: sigma-1 receptor binding assay ([3H](+)-pentazocine displacement, Jurkat cell membranes)
- PARTICULARS: tested compound 100 nM, [3H](+)-pentazocine 15 nM, 37° C., 2 hours
Where a name gives a salt, the structure may show the parent alone.
MEASURED_ENDPOINT: inhibition at 0.1 µM (%)
Report only the number, with the unit % understood.

I have this compound here, O=c1c(N2CCCCC2)ccnn1C1CCN(Cc2ccccc2)CC1 [cpd 38, hydrochloride] , and I need its recorded inhibition at 0.1 µM.
90

I have this compound here, O=c1c(-c2ccccc2)ccnn1C1CCN(Cc2ccccc2)CC1 [cpd 1, hydrochloride] , and I need its recorded inhibition at 0.1 µM.
97.1

I have this compound here, O=c1c(CCc2ccccc2)ccnn1C1CCN(Cc2ccccc2)CC1 [cpd 37, hydrochloride] , and I need its recorded inhibition at 0.1 µM.
100

# evaluate next
I have this compound here, O=c1cc(-c2ccccc2)cnn1C1CCN(Cc2ccccc2)CC1 [cpd 2, hydrochloride] , and I need its recorded inhibition at 0.1 µM.
90

---

- ASSAY_TARGET: sigma-1 receptor (Homo sapiens)
- Construct: incubing Jurkat cell membranes ([…] protein per tube) with [^3H](+)-pentazocine; endogenous in cells; host or cells: Jurkat cell membranes
- ASSAY_NAME: sigma-1 receptor binding assay ([3H](+)-pentazocine displacement, Jurkat cell membranes)
- PARTICULARS: tested compound 10 nM, [3H](+)-pentazocine 15 nM, 37° C., 2 hours
Counter-ions that a name gives are not always drawn.
MEASURED_ENDPOINT: inhibition at 0.01 µM

Short answer please: inhibition at 0.01 µM, sigma-1 receptor (Homo sapiens), entry O=c1c(-c2ccc(F)cc2)ccnn1CC1CCN(Cc2ccccc2)CC1 [cpd 35, hydrochloride]
44.6%

Short answer please: inhibition at 0.01 µM, sigma-1 receptor (Homo sapiens), entry O=c1c(-c2ccccc2)ccnn1CC1CCN(CC2CCOCC2)CC1 [cpd 15, dihydrochloride]
19.3%

Short answer please: inhibition at 0.01 µM, sigma-1 receptor (Homo sapiens), entry O=c1cc(-c2ccccc2)cnn1CCC1CCN(Cc2ccccc2)CC1 [cpd 27, hydrochloride]
61.7%

Short answer please: inhibition at 0.01 µM, sigma-1 receptor (Homo sapiens), entry O=c1c(-c2ccccc2)ccnn1CC1CCN(Cc2ccc(Cl)cc2)CC1 [cpd 12, hydrochloride]
73.1%

Short answer please: inhibition at 0.01 µM, sigma-1 receptor (Homo sapiens), entry O=c1c(-c2ccccc2)ccnn1CC1CCN(Cc2ccncc2)CC1 [cpd 14, hydrochloride]
16.4%

Short answer please: inhibition at 0.01 µM, sigma-1 receptor (Homo sapiens), entry O=c1c(-c2ccccc2)ccnn1C1CCN(CCc2ccccc2)CC1 [cpd 3, hydrochloride]
41.9%

Continuing:
Short answer please: inhibition at 0.01 µM, sigma-1 receptor (Homo sapiens), entry O=c1c(-c2ccccc2)ccnn1CC1CCCN(Cc2ccccc2)C1 (centres unmarked) [cpd 9, hydrochloride]
38.8%

Short answer please: inhibition at 0.01 µM, sigma-1 receptor (Homo sapiens), entry O=c1c(N2CCCCC2)ccnn1C1CCN(Cc2ccccc2)CC1 [cpd 38, hydrochloride]
52.3%

---

- ASSAY_TARGET: sigma-1 receptor (Homo sapiens, UniProt Q99720)
- Construct: incubing Jurkat cell membranes ([…] protein per tube) with [^3H](+)-pentazocine; endogenous in cells; host or cells: Jurkat cell membranes
- ASSAY_NAME: sigma-1 receptor binding assay ([3H](+)-pentazocine displacement, Jurkat cell membranes)
- PARTICULARS: tested compound 100 nM, [3H](+)-pentazocine 15 nM, 37° C., 2 hours
- Protocol: The sigma-1 receptor binding assays were performed according to Ganapathy et al. (J Pharmacol Exp Ther 28:251-60, 1999). The sigma-1 receptor binding assay was carried out by incubing Jurkat cell membranes ([…] protein per tube) with [^3H](+)-pentazocine a selective sigma-1 radiotracer (15 nM) and a range of concentration of tested compounds, at 37° C. for 2 hours in 5 mM tris/HCl buffer (pH=7.4). […]
Where a name gives a salt, the structure may show the parent alone.
MEASURED_ENDPOINT: inhibition at 0.1 µM (%)
Report only the number, with the unit % understood.

In the examples that follow, each entry is paired with its recorded inhibition at 0.1 µM.
I have this compound here, COc1ccc(-c2ccnn(C3CCN(Cc4ccccc4)CC3)c2=O)cc1 [cpd 30, hydrochloride] , and I need its recorded inhibition at 0.1 µM.
75.8

I have this compound here, O=c1c(-c2ccc(C(F)(F)F)cc2)ccnn1C1CCN(Cc2ccccc2)CC1 [cpd 31] , and I need its recorded inhibition at 0.1 µM.
80

I have this compound here, O=c1c(-c2ccccc2)ccnn1CCC1CCN(Cc2ccccc2)CC1 [cpd 26, hydrochloride] , and I need its recorded inhibition at 0.1 µM.
95

# evaluate next
I have this compound here, Cl.O=c1c(-c2ccccc2)cncn1C1CCN(Cc2ccccc2)CC1 [cpd 43, hydrochloride] , and I need its recorded inhibition at 0.1 µM.
90
